# studySystem: recombinant human 15-PGDH (Homo sapiens)
# Construct: purchased R&D Systems
# Sequence (P15428 whole entry): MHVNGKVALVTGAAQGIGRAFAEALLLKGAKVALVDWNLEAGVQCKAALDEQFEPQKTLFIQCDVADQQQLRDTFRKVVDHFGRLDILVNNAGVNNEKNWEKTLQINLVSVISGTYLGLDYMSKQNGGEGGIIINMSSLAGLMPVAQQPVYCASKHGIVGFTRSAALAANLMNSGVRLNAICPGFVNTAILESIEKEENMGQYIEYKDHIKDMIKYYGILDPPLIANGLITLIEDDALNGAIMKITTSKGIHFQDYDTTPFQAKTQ
# testProtocol: 15-PGDH enzyme inhibition test
# Type: biochemical
# testContext: 4 nM recombinant human 15-PGDH, 30 μM PGE2, 1 mM NAD+, 60 minutes after starting the reaction; read-out: IC50 Value
# Procedure: 15-PGDH Enzyme Inhibition Test A test compound and 4 nM recombinant human 15-PGDH (R&D Systems) were added, in 50 mM Tris-HCl (pH 8.0) containing 0.01% TWEEN 20 (Sigma) and 0.01% bovine gamma globulin (Sigma), to a 384-well Flat Bottom Black plate (Corning, 3820), and the resultant was allowed to stand still at room temperature for 12 minutes, and 30 μM PGE2 (Cayman Chemical) and 1 mM NAD+ (Sigma) were added thereto to start the reaction. […]
Parameter: IC50. Scope: all listed entries.

Solved entries:
O=C(c1cnc2c(c1)OCCN2c1ccc(C(F)(F)F)cc1)N1CCCCC1 | 10 to 100 nM
O=C(c1cnc2c(c1)CCCN2c1ccc2c(=O)[nH]ccc2c1)N1CCC(F)(F)CC1 | < 10 nM
O=C(c1cnc2c(c1)OCCN2c1ccccn1)N1CCCCC1 | > 100 nM
Cn1nc2cc(N3CCCc4cc(C(=O)N5CCC[C@H](C(F)(F)F)C5)cnc43)ccn2c1=O | < 10 nM

Q: What value of measured IC50 is listed for Cn1nc2cc(N3CCOc4cc(C(=O)C5CCC(F)(F)CC5)cnc43)ccn2c1=O ?
A: < 10 nM

Q: What value of measured IC50 is listed for C[C@H]1CCCCN1C(=O)c1cnc2c(c1)OCCN2c1ccn2c(=O)n(C)nc2c1 ?
A: < 10 nM

Q: What value of measured IC50 is listed for CN1Cc2cc(N3CCCc4cc(C(=O)N5CCC(F)(F)CC5)cnc43)cnc2C1=O ?
A: < 10 nM

Q: What value of measured IC50 is listed for CCCCn1nc2cc(N3CCOc4cc(C(=O)N5CCCCC5)cnc43)ccn2c1=O ?
A: < 10 nM

Q: What value of measured IC50 is listed for COCCN1Cc2cc(N3CCCc4cc(C(=O)N5CCCCC5)cnc43)ccc2C1=O ?
A: < 10 nM

Taken from patent US12577217B2.
